Assign TGI to each entry below.
# System: SR leukemia
# protocol.summary: NCI tumour cell line growth inhibition, 48 h

TGI reported for this compound COc1ccc2[nH]cc(CCNC(=O)[C@H](Cc3ccc(O)cc3)NC(=O)[C@@H](NCC(F)(F)F)C(C)C)c2c1 : > 100 µM

TGI reported for this compound CC(C)C1CSC2N1C(=O)C2(OCc1ccccc1)C1CC1 (stereo not given) : > 100 µM

TGI reported for this compound COC(=O)CCC(=O)Nc1ccc(Cl)cc1C : > 100 µM

TGI reported for this compound COc1cc(CCC[P+](c2ccccc2)(c2ccccc2)c2ccccc2)c(OC)c2c1OCO2 : 13.3 µM

TGI reported for this compound O=C(C[n+]1ccccc1)N/N=C(/CCC(=O)N(Cc1ccccc1)Cc1ccccc1)CC(=O)c1ccccc1 : > 100 µM

TGI reported for this compound COc1ccc(/C=C2\N=C(N3CCCC(CO)C3)NC2=O)cc1 (stereo not given) : > 100 µM

TGI reported for this compound Cc1nc(OCc2ccccc2)c2ncn(CCO)c2n1 : > 100 µM

TGI reported for this compound COc1cc2nc(N3CCCN(C)CC3)nc(NC3CCN(Cc4ccccc4)CC3)c2cc1OC : 6.66 µM

TGI reported for this compound O=C1C(Cl)=C(Cl)C(=O)C(CCNc2nccs2)=C1Cl : > 100 µM

TGI reported for this compound COC[C@H](NC(=O)c1cnc(C)s1)C(=O)N[C@@H](COC)C(=O)N[C@@H](Cc1ccccc1)C(=O)[C@@]1(C)CO1 : > 100 µM

====

# System: LXFL 529 NSCLC
# protocol.summary: NCI tumour cell line growth inhibition, 48 h
Assign TGI to each entry below.

TGI reported for this molecule O=C1C2CCN(CC2)C1CN1CCOCC1 (stereo unspecified) : 3.88 µM

TGI reported for this molecule O=C1c2ccccc2N(O)C1(c1ccccc1)C1CCCC=C1N1CCOCC1 (stereo unspecified) : > 100 µM

TGI reported for this molecule COC(=O)CCC(=O)Nc1ccc(Cl)cc1C : > 100 µM

TGI reported for this molecule CC(C)(C)C(=O)N1C(C(=O)O)Cc2ccccc2[C@@H]1Cc1ccccc1 (stereo partly specified) : > 100 µM

TGI reported for this molecule CCN(CC)CCN(CC)CC.CCN(CC)CCN(CC)CC.[Cu+2].[Cu+2].[O-][Cl+3]([O-])([O-])[O-].[OH3+].[OH3+] : > 100 µM

TGI reported for this molecule COc1ccc(CC(=O)NCCc2ccc(OC)c(OC)c2OC)cc1 : > 100 µM

====

# Tested on: CCRF-CEM leukemia
# protocol.summary: NCI tumour cell line growth inhibition, 48 h
Assign TGI to each entry below.

TGI reported for this molecule CN(C)c1ccc(/C=N/NC(N)=S)nc1 : 21.8 µM

TGI reported for this molecule COc1cc(-c2nn(-c3cccc(NC(=O)Nc4ccc(Cl)c(C(F)(F)F)c4)c3)cc2-c2ccncc2)ccc1Cl : > 32.5 µM

TGI reported for this molecule CN1CCC2(CC1)SSC1(CCN(C)CC1)S2 : > 100 µM

====

Assign TGI to each entry below.
# System: NCI-H23 lung
# protocol.summary: NCI tumour cell line growth inhibition, 48 h

Hey, NCI-H23 lung data for O=C1CCCCCCC2=C1C(Sc1ccccc1)CC2 (stereo not given) : TGI came out at > 100 µM

Hey, NCI-H23 lung data for Fc1cccc(COc2ccc(Nc3ncnc4onc(-c5ccccc5)c34)cc2)c1 : TGI came out at > 100 µM

Hey, NCI-H23 lung data for C(=N\c1nc2cc3sc(/N=C/c4ccccc4)nc3cc2s1)/c1ccccc1 : TGI came out at > 100 µM

Hey, NCI-H23 lung data for Cc1ccc(S(=O)(=O)ON2C(=O)c3cccc4cc([N+](=O)[O-])cc(c34)C2=O)cc1 : TGI came out at > 100 µM

Hey, NCI-H23 lung data for NCC(=O)Nc1ccccc1 : TGI came out at > 100 µM

Hey, NCI-H23 lung data for Cc1nc(-c2ccccc2)cn2c1nc1ccccc12 : TGI came out at > 77.7 µM

Hey, NCI-H23 lung data for COC(=O)C(Cc1c[nH]c2ccccc12)NC(=O)C(Cc1cnc[nH]1)NC(=O)C1CCC(=O)N1C(=O)OCc1ccccc1 (stereo not given) : TGI came out at > 100 µM

Hey, NCI-H23 lung data for O=[N+]([O-])c1nccn1CC(O)c1ccccc1 (stereo not given) : TGI came out at > 100 µM

Hey, NCI-H23 lung data for COc1ccc(/C=C/c2cc(OC)c(OC(C)=O)c(OC)c2)cc1 : TGI came out at 61.4 µM

Hey, NCI-H23 lung data for O=S(=O)(N=C1C(Cl)=C(Cl)C(=NS(=O)(=O)c2ccccc2)C(Cl)=C1Cl)c1ccccc1 : TGI came out at > 100 µM

====

# System: MCF7 breast
# protocol.summary: NCI tumour cell line growth inhibition, 48 h
Assign TGI to each entry below.

TGI reported for this compound O=c1cc(-c2ccc(F)cc2)[nH]c2ncccc12 : > 100 µM

TGI reported for this compound COc1ccc(C2CC(c3c(O)ccc4ccccc34)=NN2)cc1OC (stereo not given) : 34.5 µM

TGI reported for this compound CC(=O)O.CN1[CH-]N(Cc2ccc(C#N)cc2)c2ccccc21.[Ag+] : 51.7 µM

TGI reported for this compound CCOC(=O)c1[nH]c2cc(Cl)ccc2c1[C@@H](C(=O)NC(C)(C)C)N(CC)C(=O)CCCCC#Cc1cccc2c1CN(C1CCC(=O)NC1=O)C2=O (stereo not given in full) : > 100 µM

TGI reported for this compound Cc1ccc(CNc2ccc3nc(CCC4CCCCC4)[nH]c3c2)cc1 : 6.24 µM

TGI reported for this compound COc1ccc2c(c1)c(-c1nc(-c3cn(C)c4ccncc34)cs1)cn2C : 3.34 µM

TGI reported for this compound C=C1C2CCC3C4(C)CCCC(C)(C(=O)O)C4CCC3(C2)C1OC(=O)/C(C)=C/C (stereo not given) : 70.8 µM

TGI reported for this compound CC(C)(C)c1cc(/C=C(\C#N)C2=NCCO2)cc(C(C)(C)C)c1O : 12.7 µM

TGI reported for this compound CCCCCCN(CCCCCC)CCC(=O)c1ccc2cc(Br)c3ccccc3c2c1 : 54.9 µM

TGI reported for this compound NS(=O)(=O)c1ccc(NC(=O)N/N=C/c2ccccc2[N+](=O)[O-])cc1 : > 100 µM

====

Assign GI50 to each entry below.
# System: ACHN renal
# protocol.summary: NCI tumour cell line growth inhibition, 48 h

Hey, ACHN renal data for CC1(C)N=C(N)N=C(N)N1c1ccc(CNC(=O)Nc2ccc(S(=O)(=O)F)c(Cl)c2)c(Cl)c1 : GI50 came out at 5.28 µM

Hey, ACHN renal data for C(=N\Nc1ncc(-c2cc3cc4c(cc3o2)OCO4)s1)/c1ccco1 : GI50 came out at 1.85 µM

Hey, ACHN renal data for COc1ccc2c(c1)c(-c1nc(-c3cn(C)c4ccncc34)cs1)cn2C : GI50 came out at 1.73 µM

Hey, ACHN renal data for COc1ccc2c(c1)CCC1C2CC[C@@]2(C)C1CC[C@@H]2NC(=O)Cc1ccc(O)c(O)c1 (stereo not given in full) : GI50 came out at 6.01 µM

Hey, ACHN renal data for CC(=O)O.CN1[CH-]N(Cc2ccc(C#N)cc2)c2ccccc21.[Ag+] : GI50 came out at 16.3 µM

====

# System: OVCAR-3 ovarian
# protocol.summary: NCI tumour cell line growth inhibition, 48 h
Assign GI50 to each entry below.

GI50 reported for this compound COc1ccc(-c2ncnc3c2ncn3CC#CCCl)cc1 : 1.93 µM

GI50 reported for this compound C=C(C)[C@@H]1CC[C@]2(CO)CC[C@]3(C)[C@H](CC[C@@H]4[C@@]5(C)CCCNC(C)(C)[C@@H]5CC[C@]43C)[C@@H]12 : 1.66 µM

GI50 reported for this compound CC(=O)O.CN1[CH-]N(Cc2ccc(C#N)cc2)c2ccccc21.[Ag+] : 16.6 µM

GI50 reported for this compound Cc1ccc2c(C(C[N+](=O)[O-])c3ccccc3)c(-c3ccccc3)[nH]c2c1 (centres undefined) : 16.3 µM

GI50 reported for this compound Cc1ccc(CNc2ccc3nc(CCC4CCCCC4)[nH]c3c2)cc1 : 3.06 µM

GI50 reported for this compound CCSC[C@@H]1C[C@](O)(c2ccc(Cl)cc2)[C@@H](c2ccc(Cl)cc2)O1 : 18.8 µM

GI50 reported for this compound O=c1cc(-c2ccc(F)cc2)[nH]c2ncccc12 : 45.5 µM

GI50 reported for this compound CN(C)c1ccc(/C=N/NC(N)=S)nc1 : 2.54 µM

GI50 reported for this compound CCC[CH2][Sn](=[O])[CH2]CCC : > 50 µM
